- Test system: KB
- protocol: Cytotoxicity against human KB cells by sulforhodamine B assay
- Assay type: functional
- condition_info: read-out: ED50 (the source's name)
result_type: EC50

compound	assay_system	EC50
CCC1=C(O)c2c(oc(-c3ccccc3)cc2=O)C(CC)(CC)C1=O [6,8,8-TRIETHYL DESMOSDUMOTIN B]	KB	> 80 µg/mL
CCC1=C(O)c2c(oc(-c3ccccc3)cc2=O)C(C)(C)C1=O [6-ETHYL-8,8-DIMETHYL DESMOSDUMOTIN B]	KB	> 20 µg/mL
CC1=C(O)C(C)(C)c2oc(-c3ccccc3)cc(=O)c2C1=O [DESMOTUMOTIN B]	KB	> 40 µg/mL

Query block: Using known records, supply EC50 for `CCc1ccc(-c2cc(=O)c3c(O)c(CC)c(O)c(CC)c3o2)cc1`
Result block: > 20 µg/mL
